Measured values drawn from patent US20080171740A1 for this set.

TESTED_ON: CXCR4 receptor (Homo sapiens, UniProt P61073)
Construct: expressed in transfected cells; host or cells: HEK-293 cells (stably expressing human macrophage scavenging receptor) transduced with human CXCR4 BacMam and Gqi5 BacMam
Sequence (P61073 whole entry): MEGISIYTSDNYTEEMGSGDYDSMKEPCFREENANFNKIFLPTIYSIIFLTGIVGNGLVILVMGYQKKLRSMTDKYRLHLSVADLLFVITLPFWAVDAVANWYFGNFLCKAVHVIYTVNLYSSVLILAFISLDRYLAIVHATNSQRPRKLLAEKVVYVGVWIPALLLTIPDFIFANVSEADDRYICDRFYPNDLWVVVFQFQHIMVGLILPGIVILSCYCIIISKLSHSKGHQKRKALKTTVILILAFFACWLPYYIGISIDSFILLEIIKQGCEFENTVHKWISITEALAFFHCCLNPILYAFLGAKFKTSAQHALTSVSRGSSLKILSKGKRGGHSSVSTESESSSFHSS
PROTOCOL_SUMMARY: Functional FLIPR assay (block of SDF-1 alpha induced [Ca2+]i change)
Type: cell-based
PARTICULARS: HEK-293 cells with human CXCR4 BacMam and Gqi5 BacMam; antagonism of SDF-1 alpha; read-out: Functional assay (pIC50) (converted)
METRIC_NAME: IC50 (nM)
# number only, unit nM dropped from output

MOLECULE	IC50 / nM
Cc1cc(C)n2cc(CN(CCCCN)C3CCCc4cccnc43)nc2c1 (stereo not drawn)	93.3
NCCCCN(Cc1cn2c(Br)cccc2n1)C1CCCc2cccnc21 (stereo not drawn)	9.77

Answer with the recorded IC50 of NCCCCN(Cc1cn2ccc(C(F)(F)F)cc2n1)C1CCCc2cccnc21 (stereo not drawn) only.
2190

Note down IC50 recorded for NCCCCN(Cc1cn2cc(Cl)ccc2n1)C1CCCc2cccnc21 (stereo not drawn)
29.5

Report measured IC50; entry is COc1cccc2nc(CN(CCCCN)C3CCCc4cccnc43)cn12 (stereo not drawn)
10.2

Tell us which IC50 value is on record for NCCCCN(Cc1cn2ccccc2n1)C1CCCc2cccnc21 (stereo not drawn)
33.9

Provide measured IC50 value, entry: CN1CCN(c2cccc3nc(CN(CCCCN)C4CCCc5cccnc54)cn23)CC1 (stereo not drawn)
41.7

Respond only with IC50 recorded for NCCCCN(Cc1cn2cc(F)ccc2n1)C1CCCc2cccnc21 (stereo not drawn)
17

Fill in IC50 for record NCCCCN(Cc1cn2c(Cl)cccc2n1)C1CCCc2cccnc21 (stereo not drawn)
40.7
